Readings of IC50 for the listed molecules
target: AmpC β-lactamase (Escherichia coli); experiment: biochemical; parameters: made in house
Sequence (P00811 20-377): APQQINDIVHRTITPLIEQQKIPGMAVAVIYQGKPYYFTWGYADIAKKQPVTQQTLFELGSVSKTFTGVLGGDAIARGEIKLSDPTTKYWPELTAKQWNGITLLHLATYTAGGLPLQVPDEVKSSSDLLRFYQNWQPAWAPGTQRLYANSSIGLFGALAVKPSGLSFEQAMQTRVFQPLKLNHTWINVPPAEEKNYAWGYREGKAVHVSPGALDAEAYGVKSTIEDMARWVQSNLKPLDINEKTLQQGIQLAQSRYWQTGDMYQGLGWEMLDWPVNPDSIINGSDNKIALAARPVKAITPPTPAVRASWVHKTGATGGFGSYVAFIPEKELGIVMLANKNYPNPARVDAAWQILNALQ
result-type: IC50

INSERT INTO measurements (molecule, measured_value) VALUES
  ('CO/N=C(\C(=O)N[C@@H]1C(=O)N2C(C(=O)O)=C(COC(C)=O)CS[C@H]12)c1csc(N)n1 [Cefotaxime, cefotaxime]', '800 nM'),
  ('CO/N=C(\C(=O)N[C@@H]1C(=O)N2[C@@H]1SC(C)(C)[C@@H]2C(=O)O)c1csc(N)n1 [ATMO-penicillin]', '900 nM');

###

target: AmpC β-lactamase (Escherichia coli); details: hydrolysis by AmpC, 1.75 nM enzyme, 50 mM Tris pH 7
Below: a set of entries, each annotated with reported Kcat.
result-type: Kcat (s⁻¹)

INSERT INTO measurements (compound, inequality_sign, measured_value) VALUES
  ('CON=C(C(=O)NC1C(=O)N2C(C(=O)O)=C(Cl)CCC12)c1csc(N)n1 (centres unmarked)', '=', 0.0323),
  ('CC1(C)S[C@@H]2[C@H](NC(=O)Cc3ccccc3)C(=O)N2[C@H]1C(=O)O', '=', 133.1),
  ('CC(=O)OCC1=C(C(=O)O)N2C(=O)[C@@H](NC(=O)Cc3cccs3)[C@H]2SC1', '=', 263),
  ('N[C@@H](C(=O)N[C@@H]1C(=O)N2C(C(=O)O)=C(Cl)CC[C@H]12)c1ccccc1', '=', 118.3),
  ('CO/N=C(\C(=O)N[C@@H]1C(=O)N2[C@@H]1SC(C)(C)[C@@H]2C(=O)O)c1csc(N)n1', '<', 0.0045);
